assay: Quantitative highthroughput screen to assess conditional lethalithy of SEM cells grown in RPMI1640 with unreated serum (RPMI+s) (AID 1963883); conditions: SEM B-ALL cells, CellTiter-Glo viability, 48 h; series mostly up to 45.8 µM; further: nearly all actives have a fitted effect of over 35% in size;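 on viability: 100% = DMSO wells and 0% = empty wells without cells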
Results filed as inconclusive are left out. Activity calls are given as the source filed them. The call rests on the fitted dose curve; in most records, active means well fitted cell-killing curve with a large enough effect; inconclusive means small, poorly fitted or top-dose-only effect, or effect the other way; inactive means no such curve, though single readings can be large or run the other way.
Outcome codes: 1.0 = active, 0.0 = inactive

{"item_smiles": "COc1ccc(-c2ccc3ncc4c(c3c2)n(-c2ccc(N3CCNCC3)c(C(F)(F)F)c2)c(=O)n4C)cn1", "category": 1.0}
{"item_smiles": "CC(C)CC(=O)Nc1n[nH]c2c1CN(C(=O)C1CCN(C)CC1)C2(C)C", "category": 1.0}
{"item_smiles": "C=Cc1c(C)c2cc3nc(cc4[nH]c(cc5nc(cc1[nH]2)C(C)=C5CCC(=O)O)c(CCC(=O)OC)c4C)[C@@]1(C)C3=CC=C(C(=O)OC)[C@H]1C(=O)OC", "category": 0.0}
{"item_smiles": "Cn1cc(-c2ccc3nnc(Sc4ccc5ncccc5c4)n3n2)cn1", "category": 0.0}

* * *

experiment: Cellular viability qHTS for adrenocortical cancer (ACC) cell line NCI-H295R (AID 1963990); settings: CellTiter-Glo ATP luminescence, 48 h; series mostly up to 46.1 µM; further: nearly all actives have a fitted effect of over 60% in size; further: potency means the concentration at half of the fitted maximal effect
Inconclusive results are not listed. Activity calls are given as the source filed them. Calls follow the shape of the dose curve; as a rule, active = well fitted cell-killing curve with a large enough effect; inconclusive = small, poorly fitted or top-dose-only effect; inactive = flat fitted curve, though single readings scatter.
observation_type: Potency

{"compound": "C[C@H]1Oc2cc(cnc2N)-c2c(nn(C)c2C#N)CN(C)C(=O)c2ccc(F)cc21", "value_reported": "17.8 µM (active)"}
{"compound": "C=C1/C(=C\\C=C2/CCC[C@]3(C)[C@@H]([C@H](C)CCCC(C)(C)O)CC[C@@H]23)C[C@@H](O)C[C@@H]1O", "value_reported": "25.1 µM (active)"}
{"compound": "CC(=O)c1cc2ccccc2s1", "value_reported": "inactive"}
{"compound": "CNCC(O)c1ccc(O)c(O)c1 (configuration not stated)", "value_reported": "inactive"}
{"compound": "CCOC(=O)[C@H](CCc1ccccc1)N[C@@H](C)C(=O)N(CC(=O)O)C1Cc2ccccc2C1", "value_reported": "inactive"}
{"compound": "CN(C)CC/C=C1/c2ccccc2COc2ccc(CC(=O)O)cc21", "value_reported": "inactive"}
{"compound": "CC1=C(/C=C/C(C)=C/C=C/C(C)=C\\C(=O)O)C(C)(C)CCC1", "value_reported": "inactive"}
{"compound": "Cc1cn([C@H]2C[C@H](N=[N+]=[N-])[C@@H](CO)O2)c(=O)[nH]c1=O", "value_reported": "inactive"}
{"compound": "C[C@H](CS)C(=O)N1CCC[C@H]1C(=O)O", "value_reported": "inactive"}
{"compound": "N[C@@H]1CONC1=O", "value_reported": "inactive"}
{"compound": "O=C1NC(=O)/C(=C/c2ccc(-c3ccc(F)cc3O)o2)S1", "value_reported": "25.1 µM (active)"}
{"compound": "Cc1[nH]c(C)c(Cl)c(=O)c1Cl", "value_reported": "inactive"}
{"compound": "Cc1cccc(/C=N/Nc2cc(N3CCOCC3)nc(OCCc3ccccn3)n2)c1", "value_reported": "28.2 µM (active)"}
{"compound": "CCN(CC)CCCC(C)Nc1nc(C)cc(Nc2ccc3nc(C)cc(N)c3c2)n1 (configuration not stated)", "value_reported": "inactive"}
{"compound": "CC(C)CNc1ccnc(NCc2csc(-c3ccccc3)n2)n1", "value_reported": "11.2 µM (active)"}
{"compound": "CC(C)(C)C(=O)CN1C(=O)[C@H](NC(=O)Nc2cccc(C(=O)O)c2)CN(C2CCCCC2)c2ccccc21", "value_reported": "inactive"}
{"compound": "C[C@H]1CN(C[C@H](Cc2ccccc2)C(=O)NCC(=O)O)CC[C@@]1(C)c1cccc(O)c1", "value_reported": "inactive"}
{"compound": "Cc1cnc(Nc2ccc(OCCN3CCCC3)cc2)nc1Nc1cccc(S(=O)(=O)NC(C)(C)C)c1", "value_reported": "10 µM (active)"}
{"compound": "CN(C)CCc1c[nH]c2ccc(C[C@H]3COC(=O)N3)cc12", "value_reported": "inactive"}
{"compound": "CN1C(C(=O)Nc2ccccn2)=C(O)c2sccc2S1(=O)=O", "value_reported": "inactive"}
{"compound": "c1cc(CN2CCCNCCNCCCNCC2)ccc1CN1CCCNCCNCCCNCC1", "value_reported": "inactive"}
{"compound": "CC(COc1ccccc1)NC(C)C(O)c1ccc(O)cc1 (configuration not stated)", "value_reported": "inactive"}
